Where do these numbers come from? They come from patent US12037324B2.

molecular target: AGTR1 (Homo sapiens, UniProt P30556); construct: host or cells: Pathunter CHO-K1 AGTR1 β-arrestin cell line (CHO-K1); test: DiscoveRx IP1 accumulation assay (HTRF), agonist mode, Pathunter CHO-K1 AGTR1 β-arrestin cell line; type: cell-based
Please enter condition met where IP-1 Ymax (%) is greater than or equal to 10%, and condition not met where it is lower.

| compound | experimentalSystem | classAssignment |
| --- | --- | --- |
| CCc1nc2c(C)cc(C)nc2n1Cc1ccc(-c2cc(-c3ccccc3O)ccc2-c2nnn[nH]2)cn1 | AGTR1 (Homo sapiens, UniProt P30556) | condition met |
| CCc1nc2c(C)cc(C)nc2n1Cc1ccc(-c2cc(Oc3ccccc3F)ccc2-c2noc(=O)[nH]2)cc1 | AGTR1 (Homo sapiens, UniProt P30556) | condition met |
| CCc1nc2c(C)cc(C)nc2n1Cc1ccc(-c2cc(-c3ccccc3)ccc2-c2nsc(=O)[nH]2)cc1 | AGTR1 (Homo sapiens, UniProt P30556) | condition met |
| CCCCC1=NC2(CCOC2)C(=O)N1Cc1ccc(-c2cc(-c3ccccc3O)ccc2-c2nnn[nH]2)cc1 (single isomer, unassigned) [Example 150] | AGTR1 (Homo sapiens, UniProt P30556) | condition met |
| CCCCC1=NC2(CCOC2)C(=O)N1Cc1ccc(-c2cc(-c3ccccc3F)ccc2-c2nnn[nH]2)cc1 (single isomer, unassigned) [Example 149] | AGTR1 (Homo sapiens, UniProt P30556) | condition not met |
| CCCCC1=NC2(CCOC2)C(=O)N1Cc1ccc(-c2cc(-c3cccc(C)c3)ccc2-c2nnn[nH]2)cc1 (single isomer, unassigned) [Example 152] | AGTR1 (Homo sapiens, UniProt P30556) | condition not met |

###

target: hAT1R (Homo sapiens, UniProt P30556); assay: BRET β-arrestin2 biosensor assay, higher receptor expression (hAT1R 5 ng/well), HEK293 cells; assay type: cell-based; settings: High AT1R Expression
pEC50: −log10 of the molar value. Structures can show the parent of a compound that is named as a salt.
Please enter Satisfied where pEC50 is greater than or equal to 7, and Not satisfied where it is lower.

| compound | experimentalSystem | classAssignment |
| --- | --- | --- |
| CCOc1nc2cccc(C(=O)O)c2n1Cc1ccc(-c2cc(-c3c[nH]c4ccccc34)ccc2-c2noc(=O)[nH]2)cc1 [Example 322] | hAT1R (Homo sapiens, UniProt P30556) | Satisfied |
| CCCCc1ncc(C(=O)NCCOC)n1Cc1ccc(-c2cc(-c3ccccc3)ccc2-c2nn[nH]n2)cc1 [Example 374] | hAT1R (Homo sapiens, UniProt P30556) | Satisfied |
| CCOc1nc2cccc(C(=O)O)c2n1Cc1ccc(-c2cc(-c3ccccc3)ccc2-c2nn[nH]n2)cc1 [Example 312] | hAT1R (Homo sapiens, UniProt P30556) | Satisfied |
| CCc1nc2c(C)cc(C)nc2n1Cc1ccc(-c2cc(-c3cccc(C(F)(F)F)n3)ccc2-c2nn[nH]n2)cc1 [Example 61] | hAT1R (Homo sapiens, UniProt P30556) | Satisfied |
| CCc1nc2c(C)cc(C)nc2n1Cc1ccc(-c2cc(OCc3ccccc3)ccc2-c2nnn[nH]2)cc1 [Example 212] | hAT1R (Homo sapiens, UniProt P30556) | Satisfied |
| CCCCC1=NC2(CCCC2)C(=O)N1Cc1ccc(-c2cc(-c3cccnc3)ccc2-c2nn[nH]n2)cc1 [Example 125] | hAT1R (Homo sapiens, UniProt P30556) | Not satisfied |
| CCCCc1ncc(C(=O)O)n1Cc1ccc(-c2cc(-c3ccccc3)ccc2-c2nn[nH]n2)cc1 [Example 345, TFA salt] | hAT1R (Homo sapiens, UniProt P30556) | Satisfied |
| CCc1nc2c(C)cc(C)nc2n1Cc1ccc(-c2cc(Oc3cncnc3)ccc2-c2nnn[nH]2)cc1 [Example 258] | hAT1R (Homo sapiens, UniProt P30556) | Satisfied |
| CCc1nc2c(C)cc(C)nc2n1Cc1ccc(-c2cc(N3CC(C)(C)c4ccccc43)ccc2-c2nn[nH]n2)cc1 [Example 84] | hAT1R (Homo sapiens, UniProt P30556) | Satisfied |
| CCCCC(=O)N(Cc1ccc(-c2cc(N3CC(C)(C)c4ccccc43)ccc2-c2nn[nH]n2)cc1)[C@H](C(=O)O)C(C)C [Example 450] | hAT1R (Homo sapiens, UniProt P30556) | Not satisfied |
| CCCCc1ncc(C(=O)NCc2nccs2)n1Cc1ccc(-c2cc(-c3ccccc3)ccc2-c2nn[nH]n2)cc1 [Example 356] | hAT1R (Homo sapiens, UniProt P30556) | Satisfied |

###

biological target: AGTR1 (Homo sapiens, UniProt P30556); construct: host or cells: Pathunter CHO-K1 AGTR1 β-arrestin cell line (CHO-K1); assay: DiscoveRx β-arrestin2 recruitment assay (enzyme complementation, Pathunter CHO-K1 AGTR1 β-arrestin cell line); assay type: cell-based; details: DiscoveRx β-arrestin2 recruitment
The threshold is 0.02 µM. Values of EC50 beneath it are tagged t; values meeting or exceeding it are tagged f.

| smilesData | classAssignment |
| --- | --- |
| CCOc1nc2cccc(C(=O)O)c2n1Cc1ccc(-c2cc(N3CCCC(F)(F)C3)ccc2C(=O)O)cc1 | f |
| CCc1nc2c(C)cc(C)nc2n1Cc1ccc(-c2cc(-c3cn(CC)nn3)ccc2-c2nnn[nH]2)cc1 | t |
| CCOc1nc2cccc(C(=O)O)c2n1Cc1ccc(-c2cc(N3CC(C)(C)c4ccccc43)ccc2C(=O)O)cc1 | f |
| CCCCc1ncc(C(=O)NC(C)(C)C)n1Cc1ccc(-c2cc(-c3ccccc3)ccc2-c2nn[nH]n2)cc1 | f |
| CCc1nc2c(C)cc(C)nc2n1Cc1ccc(-c2cc(-c3cc(C(F)F)ccn3)ccc2-c2nn[nH]n2)cc1 | t |
| CCc1nc2c(C)cc(C)nc2n1Cc1ccc(-c2cc(-c3cc(OC)ccn3)ccc2-c2nn[nH]n2)cc1 | t |
| CCCCC(=O)N(Cc1ccc(-c2cc(-c3ccccc3)ccc2-c2nn[nH]n2)cc1)C1(C(=O)O)CCCCC1 | t |

###

Target: AGTR1 (Homo sapiens)
Construct: host or cells: Pathunter CHO-K1 AGTR1 β-arrestin cell line (CHO-K1)
Sequence (P30556 1-359): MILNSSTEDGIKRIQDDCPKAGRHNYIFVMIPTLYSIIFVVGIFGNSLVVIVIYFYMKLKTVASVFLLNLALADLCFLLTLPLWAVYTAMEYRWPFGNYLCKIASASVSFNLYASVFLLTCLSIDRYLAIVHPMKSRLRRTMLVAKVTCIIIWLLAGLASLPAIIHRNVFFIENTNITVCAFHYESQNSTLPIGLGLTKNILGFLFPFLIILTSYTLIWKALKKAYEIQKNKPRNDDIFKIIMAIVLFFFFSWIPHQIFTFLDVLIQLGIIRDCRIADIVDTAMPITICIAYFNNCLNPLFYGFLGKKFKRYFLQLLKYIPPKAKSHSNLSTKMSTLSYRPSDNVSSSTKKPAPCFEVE
Experiment: DiscoveRx β-arrestin2 recruitment assay (enzyme complementation, Pathunter CHO-K1 AGTR1 β-arrestin cell line)
Assay type: cell-based
Conditions: DiscoveRx β-arrestin2 recruitment
EC50 listing for selected compounds.

| compound | experimentalSystem | EC50, nM |
| --- | --- | --- |
| CCc1nc2c(C)cc(C)nc2n1Cc1ccc(-c2cc(Oc3ncccc3Cl)ccc2-c2nn[nH]n2)cc1 | AGTR1 (Homo sapiens) | 123 |
| CCCCC(=O)N(Cc1ccc(-c2cc(-c3ccccc3)ccc2-c2nn[nH]n2)cc1)C1(C(=O)O)CCCC1 | AGTR1 (Homo sapiens) | 384 |
| CCCCC(=O)N(Cc1ccc(-c2cc(Oc3cccc(OC(F)(F)F)c3)ccc2-c2nn[nH]n2)cc1)C1(C(=O)O)CCCCC1 | AGTR1 (Homo sapiens) | 175 |
| CCc1nc2c(C)cc(C)nc2n1Cc1ccc(-c2cc(N3CCCCCC3)ccc2-c2nn[nH]n2)cc1 | AGTR1 (Homo sapiens) | 137 |
| CCCCC(=O)N(Cc1ccc(-c2cc(-c3cccc(C)n3)ccc2-c2nn[nH]n2)cc1)[C@H](C(=O)O)C(C)C | AGTR1 (Homo sapiens) | 125 |
| CCCCC1=NC2(CCOC2)C(=O)N1Cc1ccc(-c2cc(-c3ccccc3O)ccc2-c2nnn[nH]2)cc1 (single isomer, unassigned) [Example 150] | AGTR1 (Homo sapiens) | 13.7 |
| CCCCc1ncc(C(=O)N[C@@H](CC)C2CC2)n1Cc1ccc(-c2cc(-c3ccccc3)ccc2-c2nn[nH]n2)cc1 | AGTR1 (Homo sapiens) | 174 |

###

molecular target: hAT1R (Homo sapiens, UniProt P30556); test: cell-based; details: section of the 42nd table ending at r951, example numbering restarts after the DiscoveRx section; read-out: β-arrestin2 EC50
pEC50: −log10 of the molar value.

| compound | experimentalSystem | pEC50 |
| --- | --- | --- |
| CCOc1nc2cccc(C(=O)O)c2n1Cc1ccc(-c2cc(-c3cc(C)ccn3)ccc2-c2noc(=O)[nH]2)cc1 [Example 299] | hAT1R (Homo sapiens, UniProt P30556) | 8.33 |
| CCOc1nc2cccc(C(=O)O)c2n1Cc1ccc(-c2cc(Oc3cccc(OC(F)(F)F)c3)ccc2-c2nn[nH]n2)cc1 [Example 335] | hAT1R (Homo sapiens, UniProt P30556) | 8.22 |
| CCOc1nc2cccc(C(=O)O)c2n1Cc1ccc(-c2cc(Oc3cccc(F)c3)ccc2-c2nn[nH]n2)cc1 [Example 331] | hAT1R (Homo sapiens, UniProt P30556) | 8.08 |
| CCc1nc2c(C)cc(C)nc2n1Cc1ccc(-c2cc(-n3cc(C)c(C)n3)ccc2-c2nnn[nH]2)cc1 [Example 223] | hAT1R (Homo sapiens, UniProt P30556) | 8.04 |
